B1: DLC1 (parent)
chain: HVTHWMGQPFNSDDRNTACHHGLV

# Variants of: B1
# PROCEDURE_SUMMARY: protein stability index of a GFP-peptide fusion (GPS, HEK-293T) (PSI 1-6); higher = more stable;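 further: lentivirally expressed fusions sorted by FACS into six bins by GFP to DsRed ratio, PSI derived from sequencing read proportions per bin multiplied by bin number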
# CONDITION: c terminus: a fixed tail appended
OBSERVATION_TYPE: protein stability index
Could you keep your reply to the number by itself?

Guide cases for protein stability index, answers given:
mutation_code=F10E test_value=2.75
mutation_code=S12Y test_value=1.78
mutation_code=A18T test_value=2.09

## Input Indicate the recorded protein stability index value for this variant: H21V
## Output 1.9

## Input Please indicate protein stability index recorded for H1S
## Output 2.61

## Input Give the value of protein stability index reported for the following: P9G
## Output 1.88

## Input Report measured protein stability index; entry is D14A
## Output 1.9

## Input Provide one value: measured protein stability index of C19N
## Output 2.43
